Biological target: T1, CLL-1 on U937 cells (human, UniProt Q5QGZ9 1-265)
T1 construct: whole, on cells; also called CLEC12A; Clec12A
T1 sequence: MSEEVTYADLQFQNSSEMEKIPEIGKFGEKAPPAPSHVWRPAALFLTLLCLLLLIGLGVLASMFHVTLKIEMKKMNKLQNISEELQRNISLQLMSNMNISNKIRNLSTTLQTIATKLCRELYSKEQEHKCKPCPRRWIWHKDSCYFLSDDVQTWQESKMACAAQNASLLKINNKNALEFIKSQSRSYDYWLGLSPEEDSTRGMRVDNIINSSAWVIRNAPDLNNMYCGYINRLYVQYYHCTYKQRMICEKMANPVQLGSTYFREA
Assay: flow cytometry on U937 cells, VHH at 3 ug/ml, detected with a-His-PE; a-His-PE alone 1.1% and 5,576.5, unstained 0.6% and 5,793.5
The entries below come with measured Mean FL2-A (R3 gate) values attached.
Please respond with just the number, no unit label.

Inquiry: Look up Mean FL2-A (R3 gate) of VHH clone 1H1 (VHH, includes myc and His tags; also called 2F4) VHH: QVQLQESGGGLVQPGGSLRLSCAASGFTFNSYAMTWVRQAPGKGLEWVSDINSGGGSTNYADSVKGRFTISRDNAKNTLYLQMNSLKPEDTAVYYCATELRGSDYYRGPIREYAYWGQGTLVTVSS and report it.
Reply text: 6730

Inquiry: Look up Mean FL2-A (R3 gate) of VHH clone 2H3 (VHH, Includes myc and His tags; also called 2H3 VHH-Myc-His; VHH 2H3) VHH: QVQLQESGGGLVQAGGSLRLSCVASGSIRSINVMGWYRQAPGKQRELVAACASDGNTYYADSVKGRFTISRDNAEKTVYLQMNNLKPDDTAVYYCDANSRGNYYSGQGTQVTVSS and report it.
Reply text: 8130

Inquiry: Look up Mean FL2-A (R3 gate) of VHH clone 2F3 (VHH, Includes myc and His tags) VHH: QVQLQAFGGGLVQPGGSLRLSCVVSGTMFSGKDVNWLRQAPGKHVEVVATVSSDGGTDYADFVKGRFTISRDDAKNTVNLQMNSLEPEDTANYMCHFLWGRHYWGQGTQVTVSS and report it.
Reply text: 3570

Inquiry: Look up Mean FL2-A (R3 gate) of VHH clone 2F5 (VHH, Includes myc and His tags) VHH: QVQLQQSGGGLAQTGGSLILSCAASGSIFAINEINLMGWYRQAPGKQRELVAACASDGNTYYADSVKGRFTISRDNAEKTVYLQMNNLKPDDTAVYYCDANSRGNYYSGQGTQVTVSS and report it.
Reply text: 9260

Inquiry: Look up Mean FL2-A (R3 gate) of VHH clone 1B5 (VHH, Includes myc and His tags) VHH: QVQLQESGGGLVQAGGSLRLSCVVSGATSNVNAMGWYRQAPGKERELVAAISSGGSTSYRDSVKGRFTISRDNAKNTLYLQMNSLKPEDTAMYYCAAQDWATEGYEYDYWGQGTLVTVSS and report it.
Reply text: 4130

Inquiry: Look up Mean FL2-A (R3 gate) of VHH clone 1G6 (VHH, includes myc and His tags; also called 2G11; 2H2) VHH: QVQLQQSGGGLVQAGGSLRLSCAASGSIFAINEINLMGWYRQAPGKQRELVAACASDGNTYYADSVKGRFTISRDNAEKTVYLQMNNLKPDDTAVYYCDANSRGNYYSGQGTQVTVSS and report it.
Reply text: 9310
